Measured values drawn from patent US8883771B2 for this set.

Give measured IC50 for each item. Keep answers brief.
# Test system: SK-OV-3 ovarian cancer cell line
# ASSAY_REMARKS: Inhibition of cell growth in SK-OV-3 ovarian cancer cell line
# Assay type: cell-based, human
# CONDITION_PARAMETERS: Homo sapiens; SK-OV-3 ovarian cancer cell line

[[record]]
compound = "CN[C@@H](C)C(=O)N[C@H]1CN(C(=O)NCCCCCCCCNC(=O)N2CC[C@H]3CC[C@@H](C(=O)N[C@@H]4CCCc5ccccc54)N3C(=O)[C@@H](NC(=O)[C@H](C)NC)C2)CC[C@H]2CCC(C(=O)N[C@@H]3CCCc4ccccc43)N2C1=O (some centres unmarked)"
property = "IC50"
meas_value = "< 100 nM"

[[record]]
compound = "CN[C@@H](C)C(=O)N[C@H]1CN(S(=O)(=O)CCCCCCS(=O)(=O)N2CC[C@H]3CC[C@@H](C(=O)NC(c4ccccc4)c4ccccc4)N3C(=O)[C@@H](NC(=O)[C@H](C)NC)C2)CC[C@H]2CCC(C(=O)NC(c3ccccc3)c3ccccc3)N2C1=O (some centres unmarked)"
property = "IC50"
meas_value = "< 1000 nM"

[[record]]
compound = "CN[C@@H](C)C(=O)N[C@H]1CN(S(=O)(=O)CCCCCCCCS(=O)(=O)N2CC[C@H]3CC[C@@H](C(=O)NC(c4ccccc4)c4ccccc4)N3C(=O)[C@@H](NC(=O)[C@H](C)NC)C2)CC[C@H]2CCC(C(=O)NC(c3ccccc3)c3ccccc3)N2C1=O (some centres unmarked)"
property = "IC50"
meas_value = "< 1000 nM"

[[record]]
compound = "CN[C@@H](C)C(=O)N[C@H]1CN(C(=O)NCCCCCCNC(=O)N2CC[C@H]3CC[C@@H](C(=O)N[C@H]4CC[C@@H]4c4ccccc4)N3C(=O)[C@@H](NC(=O)[C@H](C)NC)C2)CC[C@H]2CCC(C(=O)N[C@H]3CC[C@@H]3c3ccccc3)N2C1=O (some centres unmarked)"
property = "IC50"
meas_value = "< 1000 nM"

[[record]]
compound = "CN[C@@H](C)C(=O)N[C@H]1CN(S(=O)(=O)CC/C=C/CCS(=O)(=O)N2CC[C@H]3CC[C@@H](C(=O)NC(c4ccccc4)c4ccccc4)N3C(=O)[C@@H](NC(=O)[C@H](C)NC)C2)CC[C@H]2CCC(C(=O)NC(c3ccccc3)c3ccccc3)N2C1=O (some centres unmarked)"
property = "IC50"
meas_value = "< 1000 nM"

[[record]]
compound = "CN[C@@H](C)C(=O)N[C@H]1CN(C(=O)NCc2cccc(CNC(=O)N3CC[C@H]4CC[C@@H](C(=O)N[C@@H]5CCCc6ccccc65)N4C(=O)[C@@H](NC(=O)[C@H](C)NC)C3)c2)CC[C@H]2CCC(C(=O)N[C@@H]3CCCc4ccccc43)N2C1=O (some centres unmarked)"
property = "IC50"
meas_value = "< 100 nM"


Report IC50 for every entry below.
1. CN[C@@H](C)C(=O)N[C@H]1CN(S(=O)(=O)CCC/C=C/CCCS(=O)(=O)N2CC[C@H]3CC[C@@H](C(=O)NC(c4ccccc4)c4ccccc4)N3C(=O)[C@@H](NC(=O)[C@H](C)NC)C2)CC[C@H]2CCC(C(=O)NC(c3ccccc3)c3ccccc3)N2C1=O (some centres unmarked)
2. CN[C@@H](C)C(=O)N[C@H]1CN(C(=O)NCCCCCCNC(=O)N2CC[C@H]3CC[C@@H](C(=O)N[C@H]4C[C@H](c5ccccc5)C4)N3C(=O)[C@@H](NC(=O)[C@H](C)NC)C2)CC[C@H]2CCC(C(=O)N[C@H]3C[C@H](c4ccccc4)C3)N2C1=O (some centres unmarked)

Solution:
1: < 1000 nM; 2: < 10000 nM
